The values you see were collected from paper PMC12136788.

Biological target: T1, UNK ZnF1-3 (human, UniProt Q9C0B0 31-174)
T1 sequence: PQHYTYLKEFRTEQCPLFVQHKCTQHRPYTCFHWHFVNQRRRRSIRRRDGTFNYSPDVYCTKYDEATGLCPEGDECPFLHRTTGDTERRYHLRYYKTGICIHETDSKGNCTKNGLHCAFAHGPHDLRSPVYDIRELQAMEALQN
Assay: nsRBNS (natural sequence RNA bind-n-seq); RBNS binding buffer (assumed for nsRBNS): 25 mM Tris pH 7.5, 150 mM KCl, 3 mM MgCl2, 0.01% Triton X-100, 500 ug/ml BSA, 20 U/ml SUPERase-In, 4 C; UNK is unkempt and MSI1 is Musashi-1; names of the RNAs are library labels; protein concentration not given here; high values mean tight binding
Whole data set: some 24,000 sequences, median “enrichment r” near 0.99, cut for the highest 2% near 3.7. For the sample, the highest values were picked, then their nearest neighbours and some sequences at random.
REPORTED ENDPOINT: binding signal (enrichment R)

[[record]]
binder = "chr8:145151508:145151509:+_ENSG00000179091_ENST00000318911|hu_hu|FALSE|FALSE (ssRNA) RNA: GGGAGUUCUACAGUCCGACGAUCACCUUCCCGCAGUGACACCCCGGUGGGUGGCUCGCAGUAGCCCGUGAGCAGGGAGAAGACGUAGUCCUCACCACCAUGCCUAGCUCGCACGAUGUAGCUGAGGUCAGGGGGCAAUGCUCCCAACAGAGGAUUGAGCAUCA"
observed_result = 1.01

[[record]]
binder = "chr3:10015032:10015033:+_ENSMUSG00000027533_ENSMUST00000029046|mus_mus|mus_mus_mus_hu_True|1_28 (ssRNA) RNA: GGGAGUUCUACAGUCCGACGAUCGUUUUUACCAUCACAAGUGAUGAUACAAUCUGGCUUGGCCAUUGCGCCCAUUUUUCGCAAAGCUAUUCCCACUCCUAGCUCCUUCAUGUACUCAUCAAAGCCUUUGCUGUCCAUCAGGCGCAACAGAGGAUUGAGCAUCA"
observed_result = 0.662

[[record]]
binder = "chr17:56552419:56552420:-_ENSMUSG00000013236_ENSMUST00000086828|mus_mus|mus_mus_mus_hu_False|78_88 (ssRNA) RNA: GGGAGUUCUACAGUCCGACGAUCAAAAAAUACACUAUUUAAAAAAAAAAGAAAAAAAGAAAAAGAAGUUACACUGAGAGUUUUAAAAGAAAGCUGGAUUCUGGUCCCAGCCCAGUGUCCCCAGGCUGCAGAGCGGGGAGGAGCCAACAGAGGAUUGAGCAUCA"
observed_result = 12.6

[[record]]
binder = "chr6:83878822:83878823:+_ENSMUSG00000030016_ENSMUST00000032088|mus_hu|FALSE|FALSE (ssRNA) RNA: GGGAGUUCUACAGUCCGACGAUCCUCCUCGAGGAUUAAACCUGGGUCUCGACAUGGCUAUUUUCAAGAAAGCCUGAUUUAAUAAAGUAUAAGGUGGUGUUGAACCAUGUGAGGCAACGGCAUUCAGCUGCUGAAGCGCCAACUCAACAGAGGAUUGAGCAUCA"
observed_result = 1.46

[[record]]
binder = "chr7:75932113:75932114:+_ENSG00000106211_ENST00000248553|hu_hu|hu_hu_hu_mus_False|38_78 (ssRNA) RNA: GGGAGUUCUACAGUCCGACGAUCCUGCGACCACUCAUCGGGCAACCGGGGCACCCCGAAGGCCUGGUCGAAGAGGCGGCUGUGUGCAGGGUACCAGCGGAAGGGGUGUUCCCAGCUCGGGCUCCGCAGCAGCGAGAAGGGCACCAACAGAGGAUUGAGCAUCA"
observed_result = 0.969

[[record]]
binder = "chr17:56552419:56552420:-_ENSMUSG00000013236_ENSMUST00000086828|mus_mus|mus_mus_mus_hu_False|58_78 (ssRNA) RNA: GGGAGUUCUACAGUCCGACGAUCAAAAAAUACACUAUUUAAAAAAAAUGAAAUGUCAGAAAAAGAAGUUACACUGACACUAUUAAAAGAAAGCUGGAUUCUGGUCCCAGCCCAGUGUCCCCAGGCUGCAGAGCGGGGAGGAGCCAACAGAGGAUUGAGCAUCA"
observed_result = 8.52

[[record]]
binder = "chr6:155153589:155153590:+_ENSG00000213079_ENST00000417268|hu_hu|motif|central (ssRNA) RNA: GGGAGUUCUACAGUCCGACGAUCAGUAACAUUGUCUACGCUUUGUCUUCCAGGAGCUAAAAAAGGUCUUUCUGGUUGACGGAAAAUAUCUCCUGGAGGAAAAGGUCCACGGGGUGGUGGAUGAAGAGCUGAAUCAAGUACCGACAACAGAGGAUUGAGCAUCA"
observed_result = 0.663

